IC50 for assorted compounds
Protein target, amino acids: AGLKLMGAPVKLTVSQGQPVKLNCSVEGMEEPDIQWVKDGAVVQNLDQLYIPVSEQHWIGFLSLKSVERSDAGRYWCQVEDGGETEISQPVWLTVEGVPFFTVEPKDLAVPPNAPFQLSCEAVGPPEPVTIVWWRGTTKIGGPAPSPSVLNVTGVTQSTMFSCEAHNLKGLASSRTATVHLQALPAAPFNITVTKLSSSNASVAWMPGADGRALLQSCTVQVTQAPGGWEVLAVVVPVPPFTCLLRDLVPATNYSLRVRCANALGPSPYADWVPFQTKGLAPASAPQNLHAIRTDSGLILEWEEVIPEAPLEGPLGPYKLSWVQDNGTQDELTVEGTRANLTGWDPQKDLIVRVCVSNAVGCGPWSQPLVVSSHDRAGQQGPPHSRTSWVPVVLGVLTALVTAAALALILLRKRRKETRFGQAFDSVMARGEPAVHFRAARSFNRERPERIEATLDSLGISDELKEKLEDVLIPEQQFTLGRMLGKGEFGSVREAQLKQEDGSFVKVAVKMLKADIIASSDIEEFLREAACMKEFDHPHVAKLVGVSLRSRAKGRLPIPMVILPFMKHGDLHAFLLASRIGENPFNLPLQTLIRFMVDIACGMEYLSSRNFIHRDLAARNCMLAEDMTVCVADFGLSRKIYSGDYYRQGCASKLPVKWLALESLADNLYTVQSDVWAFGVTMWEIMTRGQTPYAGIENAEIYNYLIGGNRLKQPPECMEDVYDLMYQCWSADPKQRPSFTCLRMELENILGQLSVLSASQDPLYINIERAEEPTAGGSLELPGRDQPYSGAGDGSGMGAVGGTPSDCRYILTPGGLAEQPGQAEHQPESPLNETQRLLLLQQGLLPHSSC

[
  {
    "Compound": "O=C(c1ccc(-c2n[nH]c3ncc(-c4ccc5c(c4)CC[C@@H](N4CCCC4)CC5)cc23)cc1Cl)N1CCNCC1 [Example 82]",
    "IC50": "< 100 nM"
  },
  {
    "Compound": "Cc1cc(-c2n[nH]c3ncc(-c4ccc5c(c4)CCC(N4CCCC4)CC5)cc23)cc(F)c1C(N)=O (stereo not shown) [Example 79]",
    "IC50": "< 100 nM"
  },
  {
    "Compound": "O=C1CCCN1c1ccc(-c2n[nH]c3ncc(-c4ccc5c(c4)CC[C@@H](N4C6COCC4C6)CC5)cc23)cc1 [Example 122]",
    "IC50": "> 1000 nM"
  },
  {
    "Compound": "C[C@H]1CCCN1C1CCc2ccc(-c3cnc4[nH]nc(-c5ccc(C(C)(C)O)c(Cl)c5)c4c3)cc2CC1 (stereo partly shown) [Example 37]",
    "IC50": "100 to 1000 nM"
  },
  {
    "Compound": "C[C@@H]1CCCN1C1(C)CCc2ccc(-c3cnc4[nH]nc(-c5ccc(S(=O)(=O)C6CCC6)cc5)c4c3)cc2CC1 (stereo partly shown) [Example 46]",
    "IC50": "100 to 1000 nM"
  },
  {
    "Compound": "Cc1cc(-c2n[nH]c3ncc(-c4ccc5c(c4)CCN(C(=O)C(C)C)CC5)cc23)ccc1C(=O)N1CCNCC1 [Example 48]",
    "IC50": "100 to 1000 nM"
  },
  {
    "Compound": "CC(C)(O)c1ccc(-c2n[nH]c3ncc(-c4ccc5c(c4)CCN(C4CCCC4)CC5)cc23)cc1Cl [Example 12]",
    "IC50": "> 1000 nM"
  }
]

###

Assay Target: Axl (Homo sapiens, UniProt P30530)
Sequence (P30530 26-894): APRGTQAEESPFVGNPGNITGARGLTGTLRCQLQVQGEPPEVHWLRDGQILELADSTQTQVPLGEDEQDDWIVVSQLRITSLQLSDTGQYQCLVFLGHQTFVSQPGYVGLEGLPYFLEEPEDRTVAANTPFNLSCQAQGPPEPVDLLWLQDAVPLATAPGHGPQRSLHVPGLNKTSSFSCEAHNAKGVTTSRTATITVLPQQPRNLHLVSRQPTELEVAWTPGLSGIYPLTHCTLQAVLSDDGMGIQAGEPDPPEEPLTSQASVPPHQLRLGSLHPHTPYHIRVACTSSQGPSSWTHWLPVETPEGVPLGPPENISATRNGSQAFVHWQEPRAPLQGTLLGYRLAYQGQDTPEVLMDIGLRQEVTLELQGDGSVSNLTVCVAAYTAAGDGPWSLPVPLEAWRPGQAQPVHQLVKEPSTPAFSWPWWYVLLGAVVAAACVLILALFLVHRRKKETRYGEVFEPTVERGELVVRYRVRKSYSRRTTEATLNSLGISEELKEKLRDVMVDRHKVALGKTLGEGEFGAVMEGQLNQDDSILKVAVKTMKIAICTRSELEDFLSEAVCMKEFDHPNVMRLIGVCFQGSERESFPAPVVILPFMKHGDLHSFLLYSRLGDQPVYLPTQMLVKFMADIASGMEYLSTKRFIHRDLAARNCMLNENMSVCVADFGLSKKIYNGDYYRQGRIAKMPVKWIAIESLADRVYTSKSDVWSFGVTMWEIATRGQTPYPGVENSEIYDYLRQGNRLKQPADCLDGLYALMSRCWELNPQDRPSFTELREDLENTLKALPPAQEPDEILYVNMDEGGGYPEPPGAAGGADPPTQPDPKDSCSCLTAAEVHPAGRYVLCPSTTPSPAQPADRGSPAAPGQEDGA
Assay Overview: HTRF KinEASE-TK biochemical potency assay, AXL
Design: purchased Invitrogen
Assay Conditions: 5 nM AXL, 700 μM ATP, 800 nM TK Substrate-biotin

[
  {
    "Molecule": "Cc1cc(-c2n[nH]c3ncc(-c4ccc5c(c4)CCC(N4CCCC4)CC5)cc23)ccc1C(=O)N1CCNCC1 (stereo not shown)",
    "IC50": "< 100 nM"
  },
  {
    "Molecule": "C[C@@H]1CCCN1C1(C)CCc2ccc(-c3cnc4[nH]nc(-c5ccc(C(N)=O)cc5)c4c3)cc2CC1 (stereo partly shown)",
    "IC50": "< 100 nM"
  },
  {
    "Molecule": "C[C@@H]1CCCN1C1(C)CCc2ccc(-c3cnc4[nH]nc(-c5ccc(C(N)=O)c(Cl)c5)c4c3)cc2CC1 (stereo partly shown)",
    "IC50": "< 100 nM"
  },
  {
    "Molecule": "C[C@@H]1CCCN1C1(C)CCc2ccc(-c3cnc4[nH]nc(-c5ccc(C(=O)NC6CC6)cc5)c4c3)cc2CC1 (stereo partly shown)",
    "IC50": "< 100 nM"
  },
  {
    "Molecule": "NC(=O)c1ccc(-c2n[nH]c3ncc(-c4ccc5c(c4)CCC(N4CCCC4)CC5)cc23)cc1Cl (stereo not shown)",
    "IC50": "< 100 nM"
  },
  {
    "Molecule": "C[C@@H]1CCCN1C1(C)CCc2ccc(-c3cnc4[nH]nc(-c5ccc(S(=O)(=O)C6CC6)cc5)c4c3)cc2CC1 (stereo partly shown)",
    "IC50": "< 100 nM"
  },
  {
    "Molecule": "C[C@@H]1CCCN1C1CCc2ccc(-c3cnc4[nH]nc(-c5ccc(S(=O)(=O)C6CC6)cc5)c4c3)cc2C(C)(C)C1 (stereo partly shown)",
    "IC50": "< 100 nM"
  }
]

###

IC50 for assorted molecules
Assay Target: UniProtKB P30530
Assay Overview: Axl NanoBRET intracellular kinase assay (intracellular binding, Cell Binding)
Set-up: host or cells: HEK-293
Assay Conditions: HEK-293 cells transfected with Axl-NanoLuc fusion vector; 0.35 μM K-5 NanoBRET tracer
Readout: IC50

[
  {
    "Molecule": "COC1CCN(C(=O)c2ccc(-c3n[nH]c4ncc(-c5ccc6c(c5)CCC(C)(N5CCC[C@H]5C)CC6)cc34)cc2Cl)CC1 (stereo partly drawn)",
    "Assay Target": "UniProtKB P30530",
    "Result": "< 100 nM"
  },
  {
    "Molecule": "CCS(=O)(=O)c1ccc(-c2n[nH]c3ncc(-c4ccc5c(c4)CCC(C)(N4CCC[C@H]4C)CC5)cc23)cc1 (stereo partly drawn)",
    "Assay Target": "UniProtKB P30530",
    "Result": "< 100 nM"
  },
  {
    "Molecule": "COCCOc1ccc(-c2n[nH]c3ncc(-c4ccc5c(c4)CC[C@@H](N4C6COCC4C6)CC5)cc23)cc1",
    "Assay Target": "UniProtKB P30530",
    "Result": "< 100 nM"
  },
  {
    "Molecule": "C[C@@H]1CCCN1C1(C)CCc2ccc(-c3cnc4[nH]nc(-c5ccc(C(N)=O)c(Cl)c5)c4c3)cc2CC1 (stereo partly drawn)",
    "Assay Target": "UniProtKB P30530",
    "Result": "< 100 nM"
  },
  {
    "Molecule": "CC(C)(O)c1ccc(-c2n[nH]c3ncc(-c4ccc5c(c4)CCN(C4CCCC4)C5)cc23)cc1Cl",
    "Assay Target": "UniProtKB P30530",
    "Result": "> 1000 nM"
  },
  {
    "Molecule": "CC(C)(C)S(=O)(=O)c1ccc(-c2n[nH]c3ncc(-c4ccc5c(c4)CC[C@@H](N4C6COCC4C6)CC5)cc23)cc1",
    "Assay Target": "UniProtKB P30530",
    "Result": "< 100 nM"
  },
  {
    "Molecule": "CC(C)(O)c1ccc(-c2n[nH]c3ncc(-c4ccc5c(c4)CC[C@@H](N4CCCC4)CC5)cc23)c(Cl)c1",
    "Assay Target": "UniProtKB P30530",
    "Result": "100 to 1000 nM"
  },
  {
    "Molecule": "CC(C)S(=O)(=O)c1ccc(-c2n[nH]c3ncc(-c4ccc5c(c4)CCC(C)(N4CCC[C@H]4C)CC5)cc23)cc1 (stereo partly drawn)",
    "Assay Target": "UniProtKB P30530",
    "Result": "< 100 nM"
  },
  {
    "Molecule": "C[C@@H]1CCCN1C1CCc2ccc(-c3cnc4[nH]nc(-c5ccc(C(C)(C)O)c(C(F)(F)F)c5)c4c3)cc2CC1 (stereo partly drawn)",
    "Assay Target": "UniProtKB P30530",
    "Result": "< 100 nM"
  },
  {
    "Molecule": "CC1(N[C@H]2CCOC2)CCc2ccc(-c3cnc4[nH]nc(-c5ccc(S(=O)(=O)C6CC6)cc5)c4c3)cc2CC1 (stereo partly drawn)",
    "Assay Target": "UniProtKB P30530",
    "Result": "100 to 1000 nM"
  },
  {
    "Molecule": "CC(C)(O)c1ccc(-c2n[nH]c3ncc(-c4ccc5c(c4)CCN(C4CCCC4)CC5)cc23)cc1",
    "Assay Target": "UniProtKB P30530",
    "Result": "100 to 1000 nM"
  },
  {
    "Molecule": "CC(C)(O)c1ccc(-c2n[nH]c3ncc(-c4ccc5c(c4)CCN(C4CCCC4)CC5)c(F)c23)cc1Cl",
    "Assay Target": "UniProtKB P30530",
    "Result": "> 1000 nM"
  },
  {
    "Molecule": "CC1(N2CCC2)CCc2ccc(-c3cnc4[nH]nc(-c5ccc(S(=O)(=O)C6CC6)cc5)c4c3)cc2CC1 (stereo not drawn)",
    "Assay Target": "UniProtKB P30530",
    "Result": "< 100 nM"
  },
  {
    "Molecule": "COc1cc(-c2n[nH]c3ncc(-c4ccc5c(c4)CCC(C)(N4CCC[C@H]4C)CC5)cc23)ccc1S(N)(=O)=O (stereo partly drawn)",
    "Assay Target": "UniProtKB P30530",
    "Result": "100 to 1000 nM"
  },
  {
    "Molecule": "O=C1CCCN1c1ccc(-c2n[nH]c3ncc(-c4ccc5c(c4)CC[C@@H](N4C6COCC4C6)CC5)cc23)cc1",
    "Assay Target": "UniProtKB P30530",
    "Result": "< 100 nM"
  },
  {
    "Molecule": "C[C@@H]1CCCN1C1(C)CCc2ccc(-c3cnc4[nH]nc(-c5ccc(S(N)(=O)=O)cc5)c4c3)cc2CC1 (stereo partly drawn)",
    "Assay Target": "UniProtKB P30530",
    "Result": "< 100 nM"
  },
  {
    "Molecule": "CC(C)(O)c1ccc(-c2n[nH]c3ncc(-c4ccc5c(c4)CN(C4CCCC4)CC5)cc23)cc1Cl",
    "Assay Target": "UniProtKB P30530",
    "Result": "> 1000 nM"
  },
  {
    "Molecule": "C[C@@H]1CCCN1C1(C)CCc2ccc(-c3cnc4[nH]nc(-c5cnc(C(C)(C)O)c(Cl)c5)c4c3)cc2CC1 (stereo partly drawn)",
    "Assay Target": "UniProtKB P30530",
    "Result": "100 to 1000 nM"
  },
  {
    "Molecule": "CN(C)C(=O)c1ccc(-c2n[nH]c3ncc(-c4ccc5c(c4)CC[C@@H](N4C6COCC4C6)CC5)cc23)cc1",
    "Assay Target": "UniProtKB P30530",
    "Result": "< 100 nM"
  },
  {
    "Molecule": "C[C@@H]1CCCN1C1(C)CCc2ccc(-c3cnc4[nH]cc(-c5ccc(S(=O)(=O)C6CC6)cc5)c4c3)cc2CC1 (stereo partly drawn)",
    "Assay Target": "UniProtKB P30530",
    "Result": "< 100 nM"
  },
  {
    "Molecule": "Cc1cc(-c2n[nH]c3ncc(-c4ccc5c(c4)CC[C@@H](N4CCCC4)CC5)cc23)cc(Cl)c1C(N)=O",
    "Assay Target": "UniProtKB P30530",
    "Result": "< 100 nM"
  },
  {
    "Molecule": "O=S(=O)(c1ccc(-c2n[nH]c3ncc(-c4ccc5c(c4)CCN(CC4CCOC4)CC5)cc23)cc1)C1CC1 (stereo not drawn)",
    "Assay Target": "UniProtKB P30530",
    "Result": "100 to 1000 nM"
  },
  {
    "Molecule": "C[C@@H]1CCCN1C1(C)CCc2ccc(-c3cnc4[nH]nc(-c5ccc(S(=O)(=O)C6CCC6)cc5)c4c3)cc2CC1 (stereo partly drawn)",
    "Assay Target": "UniProtKB P30530",
    "Result": "< 100 nM"
  },
  {
    "Molecule": "CC(C)(O)c1ccc(-c2n[nH]c3ncc(-c4ccc5c(c4)CCC4(CCCN4)CC5)cc23)cc1Cl (stereo not drawn)",
    "Assay Target": "UniProtKB P30530",
    "Result": "> 1000 nM"
  },
  {
    "Molecule": "O=S(=O)(c1ccc(-c2n[nH]c3ncc(-c4ccc5c(c4)CCN(C4CCOCC4)CC5)cc23)cc1)C1CC1",
    "Assay Target": "UniProtKB P30530",
    "Result": "100 to 1000 nM"
  },
  {
    "Molecule": "C[C@H]1CCCN1C1CCc2ccc(-c3cnc4[nH]nc(-c5ccc(S(C)(=O)=O)cc5)c4c3)cc2CC1 (stereo partly drawn)",
    "Assay Target": "UniProtKB P30530",
    "Result": "< 100 nM"
  },
  {
    "Molecule": "O=S(=O)(c1ccc(-c2n[nH]c3ncc(-c4ccc5c(c4)CC[C@@H](N4CCCC4)CC5)cc23)cc1)C1CC1",
    "Assay Target": "UniProtKB P30530",
    "Result": "< 100 nM"
  }
]
